TESTED ON: T1, recombinant human DLL3 (human, UniProt Q9NYJ7 27-492)
T1 sequence: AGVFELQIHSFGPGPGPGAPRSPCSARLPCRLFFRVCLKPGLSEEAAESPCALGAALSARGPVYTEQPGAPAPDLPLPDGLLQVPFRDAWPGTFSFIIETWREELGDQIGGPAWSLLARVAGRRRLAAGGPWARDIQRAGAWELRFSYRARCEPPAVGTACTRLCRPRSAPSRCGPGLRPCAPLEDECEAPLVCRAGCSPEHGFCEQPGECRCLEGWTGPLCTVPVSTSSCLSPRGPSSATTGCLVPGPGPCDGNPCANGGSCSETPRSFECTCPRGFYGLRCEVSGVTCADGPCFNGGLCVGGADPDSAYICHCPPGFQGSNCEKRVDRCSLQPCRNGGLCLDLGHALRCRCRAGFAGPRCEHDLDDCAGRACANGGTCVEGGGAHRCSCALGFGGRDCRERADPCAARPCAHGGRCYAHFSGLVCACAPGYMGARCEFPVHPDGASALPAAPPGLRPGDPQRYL
PROTOCOL TEXT: Octet binning on SA sensor; Antibody A (biotinylated, loaded first): D30841AE05-SG1; then 20 nM human DLL3, then 80 nM Antibody B
Can you tell me competition ratio (Antibody B to Antibody A) for the items I'm about to list?
Format: numeric value only, no unit, no commentary.

Req: # lookup: competition ratio (Antibody B to Antibody A) of DL301-SG1 (antibody, human IgG1, kappa, V domains shown, Variable regions of a previously reported anti-DLL3 antibody on SG1/SK1; Also used biotin-labelled as a first antibody) VH: QVQLQQSGADLVRPGTSVKVSCKASGYAFTNYLIEWIKQRPGQGLEWIGVMNPGSGGTHYSEKFRGKATLTADKSSSTAYMQLISLTSDDSAVYFCARSDYDYVTYAMDYWGQGTSVTVSS VL: DIKMTQSPSSMYASLGERVTITCKASQDINSYLIWFQQKPGKSPKTLIYRTNRLVDGVPSRFSGSGSGQDYSLTISSLEYGDMGIYYCLQYDEFPFTFGSGTKLEIKR
Resp: 1.3

Req: # lookup: competition ratio (Antibody B to Antibody A) of DL309-SG1 (antibody, human IgG1, kappa, V domains shown, Variable regions of a previously reported anti-DLL3 antibody on SG1/SK1; Also used biotin-labelled as a first antibody) VH: QVQLQQSGGDLMKPGASVKISCKAAGYTFSNYYIEWVKQRPGHGLEWIGEILPGSGSTTYNEKFKGKASFTADTSSNTAYMQLSSLTSEDSAVYYCARWGAREPGFPYWGQGTLVTVSA VL: DIVMTQSQKFMSTSVGDRVSVTCKASQNVGTNVAWYQQKPGQSPKALIYSASYRYSGVPDRFTGSGSGTDFTLTISNVQSEDLAEYFCQQYNNYPLTFGAGTKLELKR
Resp: 1.5

Req: # lookup: competition ratio (Antibody B to Antibody A) of D30841AE05-SG1 (antibody, human IgG1, kappa, V domains shown, Humanized variant of DLA0841 with SG1 heavy and SK1 light constant regions; Labelled with NHS-PEG4-Biotin when used as the first (immobilized) antibody in the Octet assay) VH: QVQLKESGPALVKPTQTLTLTCTFSGFSLSSSYDMGWVRQAPGQGLEWMGTIYTGDYSTDYASWAKGRVTITADESTSTAYMELSSLRSEDTAVYYCARNTGYGYFGLWGQGTLVTVSS VL: DIQLTQSPSFLSASVGDRVTITCQSTESVYGSDWLSWYQQKPGQPPKLLIYQASNLEIGVPSRFSGSGSGTDFTLTINSLEAEDAATYYCQGYYSGYIYAFGGGTKVEIKR
Resp: 0

Req: # lookup: competition ratio (Antibody B to Antibody A) of DL306-SG1 (antibody, human IgG1, kappa, V domains shown, Variable regions of a previously reported anti-DLL3 antibody on SG1/SK1; Also used biotin-labelled as a first antibody) VH: EVQLQQSGPELVKPGASVKMSCRASGYTFTDYYMKWVKQSHGKSLEWIGDINPNNGDTFYNQKFKGKATLTIDKSSSTAYMQLNSLTSDDSAVYYCARDGNYAYFDYWGQGTTLTVSS VL: DIVLTQSPASLAVSLGQRATISCRASKSVSTSGYSYMHWYQQKPGQPPKLLIFLASNLESGVPARFSGSGSGTDFTLNIHPVEEEDAATYYCQHSRHLPWTFGGGTKLEIKR
Resp: 0

Req: # lookup: competition ratio (Antibody B to Antibody A) of DL312-SG1 (antibody, human IgG1, kappa, V domains shown, Variable regions of a previously reported anti-DLL3 antibody on SG1/SK1; Also used biotin-labelled as a first antibody) VH: EVKLVESGGGLVQPGGSLSLSCAASGFTFTDYYMNWVRQPPGKALEWLALIRNKANGYTTEYNASVKGRFTISRDNSQNILYLQMNALRAEDSATYYCARDSDGYYEYYFDYWGQGTTLTVSS VL: DIQMTQSPSSLSASLGERVSLTCRASQEISDYLSWLQQKPDGTIKRLIFAASTLDSGVPKRFSGSRSGSDFSLSISSLESEDFADYYCLQYASYPYTFGSGTKLEIKR
Resp: 1.4
